- Protocol Details: Single dose ASA pharmacokinetics, IR ASA vs. ER ASA
- Type: in vivo, human
- Particulars: human, serum, oral; ASA; single dose 20 mg; healthy adults
Experimental Readout: Cmax (ng/mL)
The answer is to be given in ng/mL; state only the numeric part.

Lab note: "CC(=O)Oc1ccccc1C(=O)O" gave Cmax of 123

---

- Protocol Details: Single dose ASA pharmacokinetics, IR ASA vs. ER ASA
- Type: in vivo, human
- Particulars: human, serum, oral, 20 mg, ASA; single dose 20 mg; healthy adults; read-out: AUClast
Experimental Readout: AUC(0-t)

Lab note: "CC(=O)Oc1ccccc1C(=O)O" gave AUC(0-t) of 148 ng·h/mL

Just for reference, patent US20170112857A1 is where these values come from.
